Tested on: NCI-H322M lung
Assay: NCI-60 one-dose screen, 48 h (100 = growth as untreated, 0 = no growth, -100 = all killed)
Settings: 10 µM unless noted
Compounds without any hit were thinned out: in the full panel of roughly 83,000, 20% have a hit.
Hi there, I'd appreciate the recorded growth for every entry that follows.
Answers are plain numbers, in %.

CCCCNC(=O)NS(=O)(=O)c1ccc(N2N=C(c3ccc(C)cc3C)CC2c2ccc(N(C)C)cc2)cc1 (configuration not stated) :: 87.4

Would you mind listing growth for each of the following compounds?
1. NC(N)=N/N=C/c1ccc(Br)cc1
2. COc1cc(C(=O)/C=C/c2c(-c3ccc(F)cc3)nc3ncccn23)cc(OC)c1OC
3. Cc1ccccc1NC(=O)CN(C)C
4. CC1(C)C(=O)/C(=C\c2cccnc2)C[C@]2(C)[C@H]3CC=C4[C@@H]5C[C@@](C)(C(=O)O)CC[C@]5(C)CC[C@@]4(C)[C@]3(C)CC[C@@H]12
5. COc1ccc(Nc2ncc(Br)c(NCCCNC(=O)C3CCC3)n2)cc1

1. 98.6
2. 69.9
3. 89.9
4. 93.1
5. 43.1
